Target: T1, dMpAgo (catalytically inactive MpAgo) (Marinitoga piezophila, UniProt H2J4R4 1-639, D446A)
T1 sequence: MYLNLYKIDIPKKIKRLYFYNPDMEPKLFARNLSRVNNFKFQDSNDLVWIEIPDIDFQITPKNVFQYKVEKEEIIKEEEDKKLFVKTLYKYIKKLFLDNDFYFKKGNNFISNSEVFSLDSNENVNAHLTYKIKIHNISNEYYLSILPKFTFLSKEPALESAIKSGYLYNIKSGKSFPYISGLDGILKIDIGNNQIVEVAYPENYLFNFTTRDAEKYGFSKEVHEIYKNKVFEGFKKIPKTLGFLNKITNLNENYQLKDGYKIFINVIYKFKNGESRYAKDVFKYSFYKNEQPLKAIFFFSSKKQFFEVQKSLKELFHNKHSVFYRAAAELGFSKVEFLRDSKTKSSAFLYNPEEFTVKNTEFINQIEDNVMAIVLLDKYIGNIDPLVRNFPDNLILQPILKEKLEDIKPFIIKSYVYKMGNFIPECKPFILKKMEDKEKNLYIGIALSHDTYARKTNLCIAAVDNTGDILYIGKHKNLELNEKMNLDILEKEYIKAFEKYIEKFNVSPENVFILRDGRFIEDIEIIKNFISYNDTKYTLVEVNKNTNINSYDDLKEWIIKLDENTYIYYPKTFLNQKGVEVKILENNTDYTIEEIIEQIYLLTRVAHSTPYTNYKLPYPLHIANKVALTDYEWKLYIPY
Assay: filter binding
pKd: −log10 of the molar value.
EXPERIMENTAL ENDPOINT: pKd

[[record]]
binder = "rA guide / ON target (mixed) RNA 1: AAUACAACCUACUACCUCAUU RNA 2: GGACUAUGAUCUAGAUAUUAAUGAGGUAGUAGGUUGUAUCUCAGGAGGUC"
test_value = 7.92

[[record]]
binder = "rU guide / ON target (mixed) RNA 1: UAUACAACCUACUACCUCAUU RNA 2: GGACUAUGAUCUAGAUAUUAAUGAGGUAGUAGGUUGUAUCUCAGGAGGUC"
test_value = 8.30

[[record]]
binder = "rA guide / OFF target (mixed) RNA 1: AAUACAACCUACUACCUCAUU RNA 2: GUUAUGUGUGUGAUUAUAUUUGUUCCAGUUCCUGUGUAAUAGACAUGGAA"
test_value = 6.95

[[record]]
binder = "rC guide / ON target (mixed) RNA 1: CAUACAACCUACUACCUCAUU RNA 2: GGACUAUGAUCUAGAUAUUAAUGAGGUAGUAGGUUGUAUCUCAGGAGGUC"
test_value = 8.34

